- EXPERIMENTAL TARGET: Ubiquitin-activating enzyme e1, putative (Leishmania donovani (strain BPK282A1)) (UniProt E9BSI1)
- Sequence (E9BSI1 as listed by the source): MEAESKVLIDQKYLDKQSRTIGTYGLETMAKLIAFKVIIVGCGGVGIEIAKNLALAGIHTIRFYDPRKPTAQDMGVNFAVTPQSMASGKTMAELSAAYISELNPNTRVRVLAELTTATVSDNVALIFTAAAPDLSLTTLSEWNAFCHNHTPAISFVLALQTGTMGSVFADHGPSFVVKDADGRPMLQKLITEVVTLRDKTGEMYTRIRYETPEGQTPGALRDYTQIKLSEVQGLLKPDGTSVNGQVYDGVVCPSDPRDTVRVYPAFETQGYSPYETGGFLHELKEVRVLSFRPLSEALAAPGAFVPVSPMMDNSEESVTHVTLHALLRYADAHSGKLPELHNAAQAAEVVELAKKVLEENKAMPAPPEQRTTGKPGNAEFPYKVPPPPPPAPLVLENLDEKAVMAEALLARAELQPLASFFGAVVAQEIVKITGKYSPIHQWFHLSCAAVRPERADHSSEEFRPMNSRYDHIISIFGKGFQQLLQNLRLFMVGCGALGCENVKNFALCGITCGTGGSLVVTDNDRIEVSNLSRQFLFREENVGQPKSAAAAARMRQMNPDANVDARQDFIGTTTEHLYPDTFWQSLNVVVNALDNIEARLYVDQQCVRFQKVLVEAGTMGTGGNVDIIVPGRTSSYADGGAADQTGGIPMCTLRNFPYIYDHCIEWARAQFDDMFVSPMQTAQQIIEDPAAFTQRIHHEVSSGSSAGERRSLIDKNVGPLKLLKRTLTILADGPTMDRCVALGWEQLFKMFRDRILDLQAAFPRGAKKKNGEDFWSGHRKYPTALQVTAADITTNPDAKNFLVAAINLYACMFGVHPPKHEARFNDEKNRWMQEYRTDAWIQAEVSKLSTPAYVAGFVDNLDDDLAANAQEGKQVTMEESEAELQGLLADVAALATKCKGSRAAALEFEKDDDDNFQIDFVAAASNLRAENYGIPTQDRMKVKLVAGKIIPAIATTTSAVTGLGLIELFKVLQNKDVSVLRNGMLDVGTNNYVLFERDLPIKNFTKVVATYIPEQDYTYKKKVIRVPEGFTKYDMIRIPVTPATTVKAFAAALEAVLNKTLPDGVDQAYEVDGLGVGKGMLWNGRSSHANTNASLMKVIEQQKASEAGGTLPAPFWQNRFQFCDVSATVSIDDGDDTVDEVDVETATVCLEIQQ
- ASSAY COMMENT: Leishmania donovani Ubiquitin Activating Enzyme (LdE1)
- Assay type: functional
- Design: scale not given: direction of the effect not stated beside the values
- CONDITIONS USED: 30 µM
Results with a measured potency or affinity are listed apart.
Below, each entry is listed with its recorded Percent Effect.
Quick reminder: number only, in %, skip the unit.

CCCN1CC(C(=O)Nc2ccccn2)CC1=O (centres undefined) | 0
CC(O)CN1CCN(C(=O)c2ccc(Br)o2)CC1 (centres undefined) | 15.8
CNC(=O)c1cccc(C2CNCCN2C(C)=O)c1 (centres undefined) | 14.9
COc1cccc(CCC(=O)N2CCCC(n3cc(C)cn3)C2)c1 (centres undefined) | -3.8
CS(=O)(=O)c1ccc(NC(=O)N2CCc3sccc3C2)cn1 | 10.8

The molecule NC(=O)c1ccc2c(c1)nc1n2CCN(Cc2ccccc2)C1 showed Percent Effect equal to 15.8

The molecule CCn1ccnc1CN1CCCN(C(=O)c2cccc(C#N)c2)CC1 showed Percent Effect equal to 2.56

The molecule Cc1cnc(C(=O)N2C[C@@H]3CN(CC4CCCC4)CCO[C@@H]3C2)cn1 showed Percent Effect equal to 11.7

The molecule C=Cn1ncc(CN2C[C@@H]3CCCN3C[C@H]2CCSC)c1C showed Percent Effect equal to 1.35

The molecule CC(=O)N1CCN(CCNS(=O)(=O)c2ccc(C)c(F)c2)CC1 showed Percent Effect equal to 18.4
